- Experimental target: T1, cynomolgus TF ECD-His6 (cynomolgus monkey (Macaca fascicularis))
- T1 construct: made in Expi293 cells; also called TF-His; cTF
- T1 chain: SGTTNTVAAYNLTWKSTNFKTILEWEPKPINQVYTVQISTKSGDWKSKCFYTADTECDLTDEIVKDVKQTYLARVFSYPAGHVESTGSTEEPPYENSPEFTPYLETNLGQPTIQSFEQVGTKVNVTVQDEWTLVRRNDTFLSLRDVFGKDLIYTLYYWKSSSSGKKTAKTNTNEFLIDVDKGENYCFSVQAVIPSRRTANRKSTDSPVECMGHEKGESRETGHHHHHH
- Procedure details: BLI (ForteBio Octet)
Assign Kd to each entry below.
// units = nM; emit number, no label

Sure, the documented Kd for 43D (antibody, human IgG1, V domains shown, human IgG1) VH: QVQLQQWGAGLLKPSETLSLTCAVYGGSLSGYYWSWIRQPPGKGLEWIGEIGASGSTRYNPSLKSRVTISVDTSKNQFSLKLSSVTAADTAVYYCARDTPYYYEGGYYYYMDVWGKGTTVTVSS VL: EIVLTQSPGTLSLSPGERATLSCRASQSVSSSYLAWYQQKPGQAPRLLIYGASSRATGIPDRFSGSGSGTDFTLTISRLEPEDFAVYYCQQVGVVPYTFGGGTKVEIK is 4.12

Sure, the documented Kd for 54E (antibody, human IgG1, V domains shown, human IgG1) VH: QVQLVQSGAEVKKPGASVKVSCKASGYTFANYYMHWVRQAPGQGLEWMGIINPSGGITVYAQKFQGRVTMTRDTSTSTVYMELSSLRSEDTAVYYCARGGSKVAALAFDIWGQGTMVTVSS VL: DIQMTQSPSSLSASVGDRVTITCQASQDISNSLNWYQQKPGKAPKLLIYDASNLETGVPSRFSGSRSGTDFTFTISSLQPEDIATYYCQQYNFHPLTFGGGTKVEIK is 4.16

Sure, the documented Kd for 39A (antibody, human IgG1, V domains shown, human IgG1) VH: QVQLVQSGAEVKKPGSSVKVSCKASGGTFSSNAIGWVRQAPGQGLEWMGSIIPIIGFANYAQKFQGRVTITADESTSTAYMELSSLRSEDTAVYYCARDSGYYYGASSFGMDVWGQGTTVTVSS VL: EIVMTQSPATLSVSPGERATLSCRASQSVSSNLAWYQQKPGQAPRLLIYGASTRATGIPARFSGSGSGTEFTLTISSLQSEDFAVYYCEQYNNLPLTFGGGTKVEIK is 0.57
